Please provide measured IC50 for the entries that follow.
measurementTarget: HMG-CoA synthase (Rattus norvegicus)
Construct: The livers from male Charles River CD rats (225-350 g) were homogenized; from tissue; host or cells: rat liver (male Charles River CD rats), 100,000×g supernatant, ammonium sulfate precipitate, DEAE-52 fraction
Sequence (P17425 whole entry): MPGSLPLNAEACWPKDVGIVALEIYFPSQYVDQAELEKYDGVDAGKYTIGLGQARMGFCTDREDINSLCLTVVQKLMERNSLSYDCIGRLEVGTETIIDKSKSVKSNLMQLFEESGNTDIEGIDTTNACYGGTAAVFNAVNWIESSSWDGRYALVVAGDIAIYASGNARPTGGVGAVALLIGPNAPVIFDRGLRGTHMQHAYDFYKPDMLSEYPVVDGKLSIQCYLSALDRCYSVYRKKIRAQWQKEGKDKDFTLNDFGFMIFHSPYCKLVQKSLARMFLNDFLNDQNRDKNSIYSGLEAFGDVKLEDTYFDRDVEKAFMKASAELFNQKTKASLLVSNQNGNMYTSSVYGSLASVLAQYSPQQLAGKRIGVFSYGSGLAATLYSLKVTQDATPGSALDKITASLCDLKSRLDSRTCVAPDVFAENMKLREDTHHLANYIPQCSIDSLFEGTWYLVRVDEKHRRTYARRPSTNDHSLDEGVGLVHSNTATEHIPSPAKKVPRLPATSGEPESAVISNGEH
measurementProtocol: HMG-CoA synthase inhibition assay
Assay type: biochemical
testConditions: Table V; n is 3, R3 is H
Form entry: value (nM) — number only.

Ask | Could you share which IC50 value was measured for Cc1ccc(S(=O)(=O)N2C(=O)CC2CCCBr)cc1 (stereo not drawn) ?
Reply | 130

Ask | Could you share which IC50 value was measured for COC(=O)c1ccc(OCCCC2CC(=O)N2S(=O)(=O)c2ccc(C)cc2)cc1 (stereo not drawn) ?
Reply | 190

Ask | Could you share which IC50 value was measured for Cc1ccc(S(=O)(=O)N2C(=O)CC2CCCOc2ccccc2)cc1 (stereo not drawn) ?
Reply | 140

Every entry's value here was drawn from patent US5120729A.
